target: human erythrocyte 20S β1c (caspase-like) site, constitutive proteasome (Homo sapiens, UniProt P28072+Q99436)
protocolText: Purified human 20S-PA28 peptidase assay, β1c site
metric: pIC50
Please treat pIC50 as minus the base-10 logarithm of the molar concentration.

Briefly, pIC50 measured for Cc1ccc(CNC(=O)[C@H](CCc2ccccc2)NC(=O)[C@H](CCc2ccccc2)NC(=O)[C@H](CCc2ccccc2)NC(=O)c2cnc(C)cn2)cc1 [Compound 1] : 4.55
